Just for reference, PubChem BioAssay AID1159580 is where these values come from.

Each entry below carries its recorded normalized growth.
# protocolSummary: chemical genetic growth profiling, strain panel (AID 1159580);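 note: tested at 20 µM; growth read once vehicle control cultures reached saturation at 30 °C; 1 = growth at the plate median or of vehicle wells; lower values mean less growth of the strain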
# conditionSet: S. cerevisiae deletion strains, growth OD, locus YER002W, strain NOP16, active compounds read low
Screen size: about 5,500 compounds; about 2,000 (36%) were called active. Another 18% or so got no clear call; they are omitted. Some of the results follow.

{"compound": "CN1[C@@H](CC(=O)c2ccccc2)CCC[C@H]1C[C@H](O)c1ccccc1", "normalized growth": "1 (inactive)"}
{"compound": "COc1[nH]c2ccc(F)cc2c1C(=O)OCC1CCN(CCNS(C)(=O)=O)CC1", "normalized growth": "1.01 (inactive)"}
{"compound": "OC[C@H]1O[C@@H](n2cnc3c(NCCc4ccccc4)ncnc32)C(O)[C@H]1O (some centres not stated)", "normalized growth": "1.02 (inactive)"}
{"compound": "CC(C)(C)NCC(O)c1ccccc1Cl (configuration not stated)", "normalized growth": "0.988 (inactive)"}
{"compound": "CC(N)[C@H](O)c1ccc(O)c(O)c1 (some centres not stated)", "normalized growth": "1 (inactive)"}
{"compound": "CNc1ncnc2c1ncn2[C@H]1C[C@H](OP(=O)(O)O)[C@@H](COP(=O)(O)O)O1", "normalized growth": "0.983 (inactive)"}
{"compound": "O=C(O)c1ccccc1Nc1cccc(OCc2ccc3ccccc3n2)c1", "normalized growth": "1.01 (inactive)"}
{"compound": "CC[N+](CC)(CC)CC(=O)Nc1c(C)cccc1C", "normalized growth": "1.01 (inactive)"}
{"compound": "CCN1CCc2nc(N)oc2CC1", "normalized growth": "0.993 (inactive)"}
{"compound": "CN/C(=C\\[N+](=O)[O-])NCCSCc1ccc(CN(C)C)o1", "normalized growth": "0.988 (inactive)"}
{"compound": "NCCNC(=O)c1ccc(Cl)cc1", "normalized growth": "1.02 (inactive)"}
{"compound": "CCn1ccnc1CC1COc2ccccc2O1 (configuration not stated)", "normalized growth": "1.01 (inactive)"}
